Target: OCT1*2 (Met420del) (Homo sapiens, UniProt O15245, DEL420-420/L160F)
Sequence (O15245 with tags, fused parts or gaps L160F/DEL420-420): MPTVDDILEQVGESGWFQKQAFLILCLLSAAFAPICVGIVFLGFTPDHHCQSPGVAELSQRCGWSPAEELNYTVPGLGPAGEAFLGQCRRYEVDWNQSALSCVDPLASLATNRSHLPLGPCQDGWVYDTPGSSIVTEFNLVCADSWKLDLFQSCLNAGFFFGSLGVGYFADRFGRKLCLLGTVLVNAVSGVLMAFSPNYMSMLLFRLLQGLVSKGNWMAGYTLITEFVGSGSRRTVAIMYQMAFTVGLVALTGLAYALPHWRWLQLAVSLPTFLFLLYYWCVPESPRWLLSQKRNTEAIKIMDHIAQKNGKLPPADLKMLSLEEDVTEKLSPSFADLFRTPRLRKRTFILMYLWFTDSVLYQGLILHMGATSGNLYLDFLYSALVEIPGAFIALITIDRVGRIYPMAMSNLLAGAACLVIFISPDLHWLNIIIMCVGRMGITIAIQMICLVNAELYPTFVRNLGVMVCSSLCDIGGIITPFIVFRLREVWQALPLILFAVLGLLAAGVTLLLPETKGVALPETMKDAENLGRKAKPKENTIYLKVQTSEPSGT
Assay: Inhibition by ranitidine of OCT1-mediated substrate uptake, OCT1*2 allele, HEK293 cells
Type: cell-based
Design: expressed in transfected cells; host or cells: HEK293 T-REx (Flp-In)
Details: substrate 0.1 μM morphine, OCT1*2, 2 min, HEK293
pIC50: −log10 of the molar value.
readoutType: pIC50

> print(dat)
                                   compound  readouttype  measured
1  CNC(=C[N+](=O)[O-])NCCSCc1ccc(CN(C)C)o1 [ranitidine, Ranitidine]        pIC50      4.71
